# Subject of test: glycine/NMDA receptor
# Assay summary: glycine/NMDA receptor affinity (1 μM glycine-stimulated [3H]-MK801 binding, rat brain membranes; also estimated by electrophysiology)
Measured metric: log10 Ki (log10 of the value in nM)
Plainly stated, the numbers are log10 of Ki given in nM.

Study these solved cases before continuing.
molecule=O=c1[nH]c2cc(Br)c[n+]([O-])c2[nH]c1=O value=3.00
molecule="O=c1[nH]c2cc(Cl)c(Cl)c([N+](=O)[O-])c2[nH]c1=O [reference compound]" value=0.52
molecule=O=c1[nH]c2cc(Cl)c(Cl)[n+]([O-])c2[nH]c1=O value=2.00

log10 Ki measured on `O=c1[nH]c2cc([N+](=O)[O-])c[n+]([O-])c2[nH]c1=O` = 2.11

The molecule listed as `Cc1cc2[nH]c(=O)c(=O)[nH]c2[n+]([O-])c1` has a reported log10 Ki of 3.38

// recorded log10 Ki for `[O-][n+]1cc(Cl)cc2nc(O)c(O)nc21` : 2.78

Notebook: `Cc1c(Cl)cc2[nH]c(=O)c(=O)[nH]c2[n+]1[O-]` , log10 Ki read as 1.70
